- target_desc: BDNF/NT-3 growth factors receptor (Homo sapiens);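 note: values are the mean percent inhibition of TRKB kinase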
- protocol_conditions: at 1 µM
quantity: inhibition (%)
Please state the figure in %; there is no need to write the unit.

# count of solved cases: 4
- smiles_input: "CCOc1ccc2c(-c3ccnc(Nc4cc(OC)cc(C(F)(F)F)c4)n3)cnn2n1"
  inhibition, %: 3.13
- smiles_input: "CS(=O)(=O)CCNCc1ccc(-c2ccc3ncnc(Nc4ccc(OCc5cccc(C(F)(F)F)c5)cc4)c3c2)o1"
  inhibition, %: 17.5
- smiles_input: "CN(c1ccc(NC(=O)NCCN2CCOCC2)cc1)c1ccnc(Nc2ccc(CS(C)(=O)=O)cc2)n1"
  inhibition, %: 8
- smiles_input: "Fc1cccc(COc2ccc(Nc3ncncc3C#Cc3ccccc3)cc2Cl)c1"
  inhibition, %: 5.8

(Q) Determine its reported inhibition: O=C1Nc2ccccc2/C1=C1\CCc2cc(O)ccc21
(A) 78

(Q) Determine its reported inhibition: CCn1c(-c2nonc2N)nc2cncc(C(=O)NCCNC)c21
(A) 5.31

(Q) Determine its reported inhibition: COc1cc(N2CCN(C(C)C)CC2)ccc1Nc1nc(Nc2cccc3ncccc23)c2cc[nH]c2n1
(A) 0.22

(Q) Determine its reported inhibition: COc1cc(Nc2ncc(-c3ccccc3)o2)cc(OC)c1
(A) 35.2

(Q) Determine its reported inhibition: CS(=O)(=O)Nc1ccc(-c2ccc3c(NC(=O)C4CC4)n[nH]c3c2)cc1
(A) 5.91

(Q) Determine its reported inhibition: c1ccc(-c2n[nH]cc2-c2ccnc(-c3ccc(OCCn4ccnc4)cc3)c2)nc1
(A) 4.04

(Q) Determine its reported inhibition: CN1CCC(n2cnc(-c3ccc(F)cc3)c2-c2ccnc(NCCO)n2)CC1
(A) 6.67
